The compounds listed here are annotated with their half-life.
Assay: Mouse liver microsomal stability
Format: in vitro ADME
Details: pH 7.4; mouse liver microsomes, NADPH, 37°C
I only need the number, in min, no unit after it.

Some compounds with known half-life results, for comparison:
• COc1ccc(N2C(=O)N(c3c(C(F)F)csc3Cl)Cc3cnc(Nc4ccc(C5CCN(C)CC5)cc4)nc32)nc1 = 10
• COc1ccc(N2C(=O)N(c3c(CF)csc3Cl)Cc3cnc(Nc4ccc(C5CCN(C)CC5)cc4)nc32)nc1 = 20
• COc1ccc(N2C(=O)N(c3c(C)csc3Cl)Cc3cnc(Nc4ccc(C5CCN(C)CC5)cc4OC)nc32)nc1 = 45

As a next step, examine the compound that follows.
Enquiry: Would you mind telling me what half-life value was observed for COc1ccc(N2C(=O)N(c3c(C)cccc3Cl)Cc3cnc(Nc4ccc(C5CCN(C)CC5)cc4OC)nc32)nc1 [PY1, reference compound] ?
Return: 87

---

Assay: Human hepatocyte stability
Format: in vitro ADME
Details: human hepatocytes, 37°C
Measured half-life at 1 uM by item
The answer is to be given in h; state only the numeric part.

Please review the following examples before continuing.
- COc1ccc(N2C(=O)N(c3c(C)csc3Cl)Cc3cnc(Nc4ccc(C5CCN(C)CC5)cc4OC)nc32)nc1: 11
- COc1ccc(N2C(=O)N(c3c(C(F)F)csc3Cl)Cc3cnc(Nc4ccc(C5CCN(C)CC5)cc4)nc32)nc1: 3.1
- COc1ccc(N2C(=O)N(c3c(C)cccc3Cl)Cc3cnc(Nc4ccc(C5CCN(C)CC5)cc4OC)nc32)nc1 [PY1, reference compound]: 10.7

Turning now to a further molecule:
Enquiry: Please give the measured half-life at 1 uM for this molecule: COc1ccc(N2C(=O)N(c3c(CF)csc3Cl)Cc3cnc(Nc4ccc(C5CCN(C)CC5)cc4)nc32)nc1
Return: 0.7

---

Readings of half-life for the listed compounds
Assay: Human liver microsomal stability
Format: in vitro ADME
Details: pH 7.4; human liver microsomes, NADPH, 37°C
Numbers only; they are read as min.

Solved entries (count: 3):
• COc1ccc(N2C(=O)N(c3c(C)cccc3Cl)Cc3cnc(Nc4ccc(C5CCN(C)CC5)cc4OC)nc32)nc1 [PY1, reference compound] = 154
• COc1ccc(N2C(=O)N(c3c(C(F)F)csc3Cl)Cc3cnc(Nc4ccc(C5CCN(C)CC5)cc4)nc32)nc1 = 12
• COc1ccc(N2C(=O)N(c3c(C)csc3Cl)Cc3cnc(Nc4ccc(C5CCN(C)CC5)cc4OC)nc32)nc1 = 18

Then this compound:
Enquiry: GET /values?readout=half-life&item= COc1ccc(N2C(=O)N(c3c(CF)csc3Cl)Cc3cnc(Nc4ccc(C5CCN(C)CC5)cc4)nc32)nc1
Return: 16

---

Assay: CaCo2 permeability and efflux assay
Type: in vitro ADME
Conditions: human, Caco-2; CaCo2, mean efflux ratio
efflux ratio at 120 min values, listed per item
Answer with a number only.

Reference set, count: 3
- COc1ccc(N2C(=O)N(c3c(C(F)F)csc3Cl)Cc3cnc(Nc4ccc(C5CCN(C)CC5)cc4)nc32)nc1: 2.7
- COc1ccc(N2C(=O)N(c3c(C)cccc3Cl)Cc3cnc(Nc4ccc(C5CCN(C)CC5)cc4OC)nc32)nc1 [PY1, reference compound]: 3.2
- COc1ccc(N2C(=O)N(c3c(CF)csc3Cl)Cc3cnc(Nc4ccc(C5CCN(C)CC5)cc4)nc32)nc1: 2.9

Next compound, efflux ratio at 120 min to be filled in.
Enquiry: Reported efflux ratio at 120 min, compound COc1ccc(N2C(=O)N(c3c(C)csc3Cl)Cc3cnc(Nc4ccc(C5CCN(C)CC5)cc4OC)nc32)nc1 : ____
Return: 2.4

---

Test system: HCT116 tumour cells
Assay: TNF-sensitised cell viability assay (CellTiter-Glo), HCT116
Format: cell-based, human
Details: read-out: HCT116 IC50 (at 10 ng/ml rHuTNF); 10 ng/ml rHuTNF, 72 h
OBSERVATION_TYPE: IC50

Enquiry: Consider the compound shown here: COc1ccc(N2C(=O)N(c3c(CF)csc3Cl)Cc3cnc(Nc4ccc(N5CCN(C)CC5)cc4)nc32)nc1 What is its recorded IC50?
Return: < 100 nM

---

Test system: HCT116 tumour cells
Assay: TNF-sensitised cell viability assay (CellTiter-Glo), HCT116
Assay type: cell-based, human
Details: Homo sapiens, HCT-116, read-out: HCT116 IC50 (at 10 ng/ml rHuTNF); 10 ng/ml rHuTNF, 72 h
OBSERVATION_TYPE: IC50

Use these answered entries as a reference point.
* COc1ccc(N2C(=O)N(c3c(CF)csc3Cl)Cc3cnc(Nc4ccc(C5CC(C)N(C)C(C)C5)cc4)nc32)nc1 (stereo not shown) [AA8] | < 100 nM
* COc1ccc(N2C(=O)N(c3c(CF)csc3Cl)Cc3cnc(Nc4ccc(C5CCN(C)C(C)C5)cc4)nc32)nc1 (stereo not shown) [AA9] | < 100 nM

Enquiry: Which IC50 reading was recorded for the molecule COCCN1C(=O)N(c2c(CF)csc2Cl)Cc2cnc(Nc3ccc(C4CCN(C)CC4)cc3OC)nc21 [AA12] ?
Return: > 1500 nM

Enquiry: Next molecule up: COc1ccc(N2C(=O)N(c3c(C)cccc3Cl)Cc3cnc(Nc4ccc(C5CCN(C)CC5)cc4OC)nc32)nc1 [PY1, reference compound]
Return: 500 to 1000 nM

---

Assay: Human plasma-protein binding (RED method)
Format: in vitro ADME
Listed compounds paired with reported recovery at 5 h, 10 uM
The answer is to be given in %; state only the numeric part.

Some solved entries appear below for comparison.
- COc1ccc(N2C(=O)N(c3c(C(F)F)csc3Cl)Cc3cnc(Nc4ccc(C5CCN(C)CC5)cc4)nc32)nc1: 32
- COc1ccc(N2C(=O)N(c3c(C)cccc3Cl)Cc3cnc(Nc4ccc(C5CCN(C)CC5)cc4OC)nc32)nc1 [PY1, reference compound]: 53

Enquiry: Entry COc1ccc(N2C(=O)N(c3c(CF)csc3Cl)Cc3cnc(Nc4ccc(C5CCN(C)CC5)cc4)nc32)nc1 : reported recovery at 5 h, 10 uM = ?
Return: 34

Enquiry: Now consider COc1ccc(N2C(=O)N(c3c(C)csc3Cl)Cc3cnc(Nc4ccc(C5CCN(C)CC5)cc4OC)nc32)nc1 and answer again.
Return: 32

---

System: HCT116 tumour cells
Test: TNF-sensitised cell viability assay (CellTiter-Glo), HCT116
Type: cell-based, human
Conditions: Homo sapiens, HCT-116, read-out: HCT116 IC50 (at 10 ng/ml rHuTNF); 10 ng/ml rHuTNF, 72 h
Experimental: Cell viability of HCT116 tumour cells was measured using the CellTiter-Glo (CTG) luminescent cell viability assay (Promega, Madison, USA) according to the manufacturer's protocol. […] Read-out was performed using the Tecan reader with 0.1 sec counting time. TNF-induced cell killing in human PANC1 and murine MC38 tumour cells was measured analogously to the assay in human HCT116 cells, except that for the PANC1 assay 100 ng/ml rHuTNF and for the MC38 assay 100 ng/ml rMuTNF were used.
Reported values of IC50 for individual entries

• COc1cc(C2CCN(C)CC2)ccc1Nc1ncc2c(n1)N(C)C(=O)N(c1c(CF)csc1Cl)C2 = > 1500 nM
• COc1ccc(N2C(=O)N(c3c(CF)csc3Cl)Cc3cnc(Nc4ccc(C5CCN(C)CC5)cc4OC)nc32)cc1 = 1000 to 1500 nM
• COc1ccc(N2C(=O)N(c3c(CF)csc3Cl)Cc3cnc(Nc4ccc(C5CCN(C)CC5)cc4OC)nc32)nc1 = < 100 nM

Enquiry: Quick one: IC50 of COc1ccc(N2C(=O)N(c3c(C(F)F)csc3Cl)Cc3cnc(Nc4ccc(C5CCN(C)CC5)cc4OC)nc32)nc1 ?
Return: > 1500 nM

---

Molecular target: SIK2 (Homo sapiens, UniProt Q9H0K1)
Sequence (Q9H0K1 whole entry): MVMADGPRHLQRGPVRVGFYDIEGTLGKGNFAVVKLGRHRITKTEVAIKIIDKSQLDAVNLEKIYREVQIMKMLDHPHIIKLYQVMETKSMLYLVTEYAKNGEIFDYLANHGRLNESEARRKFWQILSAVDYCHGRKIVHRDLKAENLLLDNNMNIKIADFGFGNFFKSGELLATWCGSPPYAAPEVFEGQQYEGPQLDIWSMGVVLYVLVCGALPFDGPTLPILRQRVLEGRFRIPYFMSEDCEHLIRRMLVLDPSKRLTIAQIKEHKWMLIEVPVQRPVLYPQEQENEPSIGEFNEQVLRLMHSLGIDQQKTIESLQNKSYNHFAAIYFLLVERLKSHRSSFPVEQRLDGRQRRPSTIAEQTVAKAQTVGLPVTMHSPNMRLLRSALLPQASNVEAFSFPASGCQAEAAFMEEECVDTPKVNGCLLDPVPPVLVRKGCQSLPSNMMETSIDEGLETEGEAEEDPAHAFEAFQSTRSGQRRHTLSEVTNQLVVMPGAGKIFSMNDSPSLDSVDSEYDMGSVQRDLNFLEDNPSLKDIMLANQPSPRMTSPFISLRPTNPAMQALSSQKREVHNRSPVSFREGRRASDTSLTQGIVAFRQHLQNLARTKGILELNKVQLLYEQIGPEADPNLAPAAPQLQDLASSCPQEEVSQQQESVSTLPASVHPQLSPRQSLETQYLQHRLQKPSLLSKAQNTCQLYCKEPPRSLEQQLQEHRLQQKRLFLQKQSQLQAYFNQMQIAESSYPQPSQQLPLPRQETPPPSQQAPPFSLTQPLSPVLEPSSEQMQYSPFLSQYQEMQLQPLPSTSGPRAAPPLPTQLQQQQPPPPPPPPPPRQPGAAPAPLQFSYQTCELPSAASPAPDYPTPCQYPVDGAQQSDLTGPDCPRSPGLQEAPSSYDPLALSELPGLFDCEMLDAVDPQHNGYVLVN
Assay: radiometric protein kinase assay (33PanQinase Activity Assay), SIK2
Type: biochemical
Settings: ATP 1.0 μM, substrate RBER-CHKtide
OBSERVATION_TYPE: IC50

Enquiry: Report IC50 for COc1cc(C2CCN(C)CC2)ccc1Nc1ncc2c(n1)N(C)C(=O)N(c1c(CF)csc1Cl)C2 please.
Return: 100 to 200 nM

---

Target: SIK3 (Homo sapiens, UniProt Q9Y2K2)
Sequence (Q9Y2K2 whole entry): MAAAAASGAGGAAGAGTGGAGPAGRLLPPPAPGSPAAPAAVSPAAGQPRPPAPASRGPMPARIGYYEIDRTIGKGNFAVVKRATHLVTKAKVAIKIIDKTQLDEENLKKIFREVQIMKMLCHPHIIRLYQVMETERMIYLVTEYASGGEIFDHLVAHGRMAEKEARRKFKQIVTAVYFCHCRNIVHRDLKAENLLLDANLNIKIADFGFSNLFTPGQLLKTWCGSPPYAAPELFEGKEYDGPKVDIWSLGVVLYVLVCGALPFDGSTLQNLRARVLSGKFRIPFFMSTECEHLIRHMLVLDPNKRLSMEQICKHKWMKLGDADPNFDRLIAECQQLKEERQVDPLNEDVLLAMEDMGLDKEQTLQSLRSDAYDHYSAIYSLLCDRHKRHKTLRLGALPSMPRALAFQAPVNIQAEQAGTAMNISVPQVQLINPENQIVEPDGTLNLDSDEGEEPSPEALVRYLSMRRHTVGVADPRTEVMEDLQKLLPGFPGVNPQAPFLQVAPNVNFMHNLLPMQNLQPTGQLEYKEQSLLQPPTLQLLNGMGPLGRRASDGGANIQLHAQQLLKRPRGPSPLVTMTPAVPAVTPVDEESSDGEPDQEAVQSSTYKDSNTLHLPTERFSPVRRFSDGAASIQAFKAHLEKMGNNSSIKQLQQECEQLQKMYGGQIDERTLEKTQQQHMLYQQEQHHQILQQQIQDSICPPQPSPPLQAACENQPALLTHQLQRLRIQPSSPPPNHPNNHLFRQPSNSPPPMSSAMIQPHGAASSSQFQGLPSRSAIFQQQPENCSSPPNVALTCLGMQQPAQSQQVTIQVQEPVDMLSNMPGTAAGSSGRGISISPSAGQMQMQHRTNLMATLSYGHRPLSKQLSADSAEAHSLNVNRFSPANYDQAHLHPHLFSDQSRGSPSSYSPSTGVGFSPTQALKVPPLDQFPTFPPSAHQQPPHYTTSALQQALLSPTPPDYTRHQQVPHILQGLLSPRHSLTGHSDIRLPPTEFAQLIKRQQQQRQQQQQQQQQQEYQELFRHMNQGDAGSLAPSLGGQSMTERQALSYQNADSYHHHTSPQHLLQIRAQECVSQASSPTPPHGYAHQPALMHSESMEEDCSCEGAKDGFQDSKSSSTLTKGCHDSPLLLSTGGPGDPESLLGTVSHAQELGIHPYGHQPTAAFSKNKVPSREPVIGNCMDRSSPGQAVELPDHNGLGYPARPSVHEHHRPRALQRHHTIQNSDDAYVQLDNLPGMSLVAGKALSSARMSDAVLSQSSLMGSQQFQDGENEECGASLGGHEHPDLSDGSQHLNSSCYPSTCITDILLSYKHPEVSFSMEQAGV
Test: radiometric protein kinase assay (33PanQinase Activity Assay), SIK3
Type: biochemical
Conditions: ATP 1.0 μM, substrate RBER-CHKtide
OBSERVATION_TYPE: IC50

• COc1ccc(N2C(=O)N(c3c(CF)csc3Cl)Cc3cnc(Nc4ccc(N5CCN(C)CC5)cc4)nc32)nc1 = < 50 nM
• COc1ccc(N2C(=O)N(c3c(CF)csc3Cl)Cc3cnc(Nc4ccc(C5CC(C)N(C)C(C)C5)cc4)nc32)nc1 (stereo not shown) = < 50 nM
• COc1ccc(N2C(=O)N(c3c(CF)csc3Cl)Cc3cnc(Nc4ccc(C5CCN(C)C(C)C5)cc4)nc32)nc1 (stereo not shown) = < 50 nM

Enquiry: Could you tell me which IC50 is on file for COc1ccc(N2C(=O)N(c3c(C(F)F)csc3Cl)Cc3cnc(Nc4ccc(C5CCN(C)CC5)cc4OC)nc32)nc1 ?
Return: 100 to 200 nM

Enquiry: Next record, please: COc1ccc(N2C(=O)N(c3c(C)csc3Cl)Cc3cnc(Nc4ccc(C5CCN(C)CC5)cc4OC)nc32)nc1
Return: 200 to 400 nM

Enquiry: Continue with COc1ccc(N2C(=O)N(c3c(CF)csc3Cl)Cc3cnc(Nc4ccc(C5CCN(C)CC5)cc4OC)nc32)nc1
Return: 100 to 200 nM

Enquiry: What do you get for COc1ccc(N2C(=O)N(c3c(C)nn(C)c3C)Cc3cnc(Nc4ccc(C5CCN(C)CC5)cc4OC)nc32)nc1 ?
Return: > 10000 nM

Enquiry: Another compound to look at: COc1cc(C2CCN(C)CC2)ccc1Nc1ncc2c(n1)N(C)C(=O)N(c1c(CF)csc1Cl)C2
Return: < 50 nM
